assay: Displacement of [3H]sipatrigine from Wistar rat brain synaptosomes voltage-gated sodium channel by liquid scintillation counting; assay type: subcellular
# strict inequality: IC50 < 6 µM yields 1, everything else yields 0

{"columns": ["given smiles", "group"],
 "data": [
  ["CC(C)(C)OC(=O)NCc1noc(-c2nn(Cc3ccc(-n4cccn4)cc3)c3ccccc23)n1", 0],
  ["CC(C)(C)OC(=O)NCc1noc(-c2nn(CCn3ccnc3)c3ccccc23)n1", 0],
  ["CC(=O)Nc1ccc(C(=O)NCc2noc(-c3c4ccccc4nn3CCn3ccnc3)n2)cc1", 0],
  ["O=S(=O)(NCc1noc(-c2c3ccccc3nn2CCn2ccnc2)n1)c1ccccc1", 1],
  ["O=C(NCc1noc(-c2nn(CCn3ccnc3)c3ccccc23)n1)c1ccccc1", 0],
  ["COc1ccc(C(=O)NCc2noc(-c3c4ccccc4nn3CCn3ccnc3)n2)cc1", 0],
  ["COc1cccc(C(=O)NCc2noc(-c3c4ccccc4nn3CCn3ccnc3)n2)c1OC", 1],
  ["NCc1noc(-c2c3ccccc3nn2Cc2ccccn2)n1", 0],
  ["Cc1cc(C(=O)NCc2noc(-c3c4ccccc4nn3CCn3ccnc3)n2)ccc1[N+](=O)[O-]", 1],
  ["NCc1noc(-c2c3ccccc3nn2CCn2ccnc2)n1", 0],
  ["O=C(NCc1noc(-c2nn(CCn3ccnc3)c3ccccc23)n1)c1cccc2[nH]ccc12", 0],
  ["COc1cccc(C(=O)NCc2noc(-c3c4ccccc4nn3CCn3ccnc3)n2)c1", 1],
  ["O=C(NCc1noc(-c2nn(CCn3ccnc3)c3ccccc23)n1)c1cccc(OC(F)(F)F)c1", 1],
  ["Cc1ccccc1S(=O)(=O)NCc1noc(-c2nn(CCn3ccnc3)c3ccccc23)n1", 1],
  ["O=C(NCc1noc(-c2c3ccccc3nn2CCn2ccnc2)n1)c1cccc(F)c1F", 1],
  ["Cc1ccccc1C(=O)NCc1noc(-c2c3ccccc3nn2CCn2ccnc2)n1", 1],
  ["COc1ccc(C(=O)NCc2noc(-c3nn(CCn4ccnc4)c4ccccc34)n2)c(OC)c1OC", 1],
  ["O=C(NCc1noc(-c2c3ccccc3nn2CCn2ccnc2)n1)c1ccc2c(c1)OCO2", 1],
  ["NCc1noc(-c2c3ccccc3nn2CCc2cccs2)n1", 1]
]}
